Molecular target: PD-1/PD-L1 interaction (PD-1-Ig / PD-L1-His) (Homo sapiens (Human))
Sequence (Q9NZQ7 18-239): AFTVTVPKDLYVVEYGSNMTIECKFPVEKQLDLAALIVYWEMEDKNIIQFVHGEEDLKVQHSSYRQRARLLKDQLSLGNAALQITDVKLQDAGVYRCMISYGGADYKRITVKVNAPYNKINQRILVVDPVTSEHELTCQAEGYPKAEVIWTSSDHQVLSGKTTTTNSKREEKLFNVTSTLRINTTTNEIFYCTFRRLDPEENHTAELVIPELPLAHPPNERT
Experiment: PD-1/PD-L1 Homogenous Time-Resolved Fluorescence (HTRF) binding assay
Details: PD-L1-His 10 nM final, PD-1-Ig 20 nM final
parameter measured: IC50 (nM)

P: COc1cc(OCc2cccc(-c3cccc(OCC4CCCN(C)C4)c3Cl)c2C)c(Cl)cc1CNC1C(=O)OCC1(C)C (stereo not drawn) [Compound 1037]
Q: Cc1c(COc2cc(OCc3cncc(C#N)c3)c(CN[C@H]3CCNC3=O)cc2Cl)cccc1-c1cccc(OCC2CCCN(C)C2)c1Cl (stereo partly drawn) [Compound 1010]
R: CCN(Cc1cc(Cl)c(OCc2cccc(-c3cccc(COc4cc(OCc5cncc(C#N)c5)c(CN(CC)C5CC(C)OC5=O)cc4Cl)c3C)c2C)cc1OCc1cncc(C#N)c1)C1CC(C)OC1=O (stereo not drawn) [Compound 1054]
S: Cc1c(COc2cc(OCc3cncc(C#N)c3)c(CN[C@@H]3CCOC3=O)cc2Cl)cccc1-c1cccc(OCC2CCCN(C)C2)c1Cl (stereo partly drawn) [Compound 1002]
Challenge: Reorder the records above by IC50 so that values decrease. Dear reader, please state the labels in the requested order.
Response given: R, P, S, Q
